System: SNB-75 CNS
TEST NAME: NCI-60 one-dose screen, 48 h (100 = growth as untreated, 0 = no growth, -100 = all killed)
STATED CONDITIONS: 10 µM unless noted
The panel holds about 83,000 compounds, 20% with a hit somewhere; the sample as a whole holds those more often.
Answer each item with its documented growth.
Express your answer in %, writing the number without its unit.

**Q:** Could you share which growth value was measured for Cc1ccc(F)cc1NC(=O)c1cc(Cl)ccc1Nc1ccccc1 ?
**A:** 53.6

**Q:** Recorded growth of COC(=O)c1cc2c(n1Cc1ccccc1)-c1oncc1CCC2 , please.
**A:** 67.2

**Q:** // lookup growth for O=c1oc2ccc(Cl)cc2c(=O)n1-c1ccc(I)cc1F
**A:** -28.4

**Q:** Given the entry CCN1CCN(C(=S)SCC(=O)Nc2nc3ccc(C)cc3s2)CC1 , report its measured growth.
**A:** 89

**Q:** So what does the record say about growth for N#Cc1c(N)nc2c(c1N)C(c1ccc(F)cc1)c1ccc(N)cc1O2 (stereo unspecified) ?
**A:** 86.6

**Q:** Which growth value is on record for CCOC(=O)c1cc2c(n1Cc1cccc(OC)c1)-c1oncc1CCC2 ?
**A:** 7.49
